Attribution: patent US11603356B2

experiment: In vivo rat PK study, oral aqueous liquid suspension formulation; conditions: in vivo, po, 10 mg/kg, oral 10 mg/kg, suspension in 0.5% w/v Klucel GF and 0.5% w/v Poloxamer F-68
experimental readout: half-life

Any idea what its half-life is? The compound is Cc1ccc(NC(=O)[C@H]2CCCN(C(=O)c3c(C)cccc3F)[C@H]2c2ccc(NC3CCCC3)cc2)cc1C(F)(F)F [Crystalline Compound 1]
3.9 h

====

test: Solubility in IV formulation saline/PEG400/Tween80; format: physicochemical; settings: saline/PEG400/Tween80 (88:10:1) IV formulation, aqueous with cosolvent or surfactant or cyclodextrin, thermodynamic from solid, saline/PEG400/Tween80 (88:10:1); 48 Hr.
experimental readout: solubility at 48 h (µg/mL)
Number only, in µg/mL; omit the unit.

Any idea what its solubility at 48 h is? The compound is `Cc1ccc(NC(=O)[C@H]2CCCN(C(=O)c3c(C)cccc3F)[C@H]2c2ccc(NC3CCCC3)cc2)cc1C(F)(F)F`
26.9

====

assay: In vivo rat PK study, oral aqueous liquid suspension formulation; conditions: in vivo, po, 10 mg/kg, oral 10 mg/kg, suspension in 0.5% w/v Klucel GF and 0.5% w/v Poloxamer F-68, read-out: Tmax
experimental readout: Tmax (h)
Number only, in h; omit the unit.

Any idea what its Tmax is? The molecule is Cc1ccc(NC(=O)[C@H]2CCCN(C(=O)c3c(C)cccc3F)[C@H]2c2ccc(NC3CCCC3)cc2)cc1C(F)(F)F [Crystalline Compound 1]
1.5

====

Experiment: In vivo rat PK study, oral aqueous liquid suspension formulation
Conditions: in vivo, oral 10 mg/kg, suspension in 0.5% w/v Klucel GF and 0.5% w/v Poloxamer F-68
Experimental: An in vivo rat PK study was conducted to compare the PK profile and bioavailability of crystalline form against amorphous form of Compound 1 in an aqueous liquid suspension formulation, which contained 0.5% w/v Hydroxypropyl Cellulose (Klucel GF grade) and 0.5% w/v Poloxamer F-68 (BASF Kolliphor P188). Each animal was orally administrated 10 mg/kg of Compound 1 at 5 mL/kg dosing volume (a dosing concentration of 2 mg/mL).
experimental readout: AUC(0-inf) (ng·h/mL)
Number only, in ng·h/mL; omit the unit.

Any idea what its AUC(0-inf) is? The compound is `Cc1ccc(NC(=O)[C@H]2CCCN(C(=O)c3c(C)cccc3F)[C@H]2c2ccc(NC3CCCC3)cc2)cc1C(F)(F)F`
2470

====

test: Kinetic solubility in 0.1 N HCl, FaSSGF and FeSSIF at 37° C.; assay type: physicochemical; conditions: Fed State Simulated Intestinal Fluid (FeSSIF), 37 °C, pH 4.9, fessif, thermodynamic from solid, FeSSIF (pH 4.90); 0.5 Hr.; read-out: CCX168 Solubility at 37° C.
experimental readout: solubility at 0.5 h

Any idea what its solubility at 0.5 h is? The compound is `Cc1ccc(NC(=O)[C@H]2CCCN(C(=O)c3c(C)cccc3F)[C@H]2c2ccc(NC3CCCC3)cc2)cc1C(F)(F)F`
< 3.1 µg/mL

====

Test: Solubility in IV formulation saline/PEG400/Tween80
Type: physicochemical
Conditions: saline/PEG400/Tween80 (88:10:1) IV formulation, aqueous with cosolvent or surfactant or cyclodextrin, thermodynamic from solid, saline/PEG400/Tween80 (88:10:1); 24 Hr.
Procedure: Intravenous (IV) formulations of a crystalline form of Compound 1 and the amorphous form of Compound 1 were prepared by contacting the amorphous of crystalline Compound 1 with saline/PEG400/Tween80 (88:10:1). The crystalline form of Compound 1 was prepared as described in Example 1, the amorphous form of Compound was prepared as described in Example 2, Method 1.
experimental readout: solubility at 24 h

Any idea what its solubility at 24 h is? The compound is `Cc1ccc(NC(=O)[C@H]2CCCN(C(=O)c3c(C)cccc3F)[C@H]2c2ccc(NC3CCCC3)cc2)cc1C(F)(F)F`
28.9 µg/mL

====

assay: Solubility in IV formulation saline/PEG400/Tween80; format: physicochemical; conditions: saline/PEG400/Tween80 (88:10:1) IV formulation, aqueous with cosolvent or surfactant or cyclodextrin, thermodynamic from solid, saline/PEG400/Tween80 (88:10:1); 96 Hr.
experimental readout: solubility at 96 h (µg/mL)
Number only, in µg/mL; omit the unit.

Any idea what its solubility at 96 h is? The compound is `Cc1ccc(NC(=O)[C@H]2CCCN(C(=O)c3c(C)cccc3F)[C@H]2c2ccc(NC3CCCC3)cc2)cc1C(F)(F)F`
26.3

====

assay: In vivo rat PK study, oral aqueous liquid suspension formulation; details: in vivo, oral 10 mg/kg, suspension in 0.5% w/v Klucel GF and 0.5% w/v Poloxamer F-68, read-out: AUC0-t
experimental readout: AUC0-t (ng·h/mL)
Number only, in ng·h/mL; omit the unit.

Any idea what its AUC0-t is? The compound is Cc1ccc(NC(=O)[C@H]2CCCN(C(=O)c3c(C)cccc3F)[C@H]2c2ccc(NC3CCCC3)cc2)cc1C(F)(F)F [Amorphous Compound 1]
2410
